Values compiled from the nanobody polyreactivity screen of Harvey et al. (2022).

Test: yeast display, Sf9 membrane polyspecificity reagent, FACS + sequencing; frameworks hold sequencing errors
property: polyreactivity (PSR sort gate)

sequence-text | polyreactivity (PSR sort gate)
QVQLVESGGGLVQAGGSLRLSCAASGIIFGRYAMGWYRQAPGKERELVAVISRSGGSTYYADSVKGRFTISRDNAKNTVYLQMNSLKPEDTAVYYCAARYTPTYNAGLDYWGQGTQVTVSS | high polyreactivity
QVQLVDSGGGLVQAGGSLRLSCDASGSIFYPYALGCYIQAPGKERELVAAITTSGGSTYYADSVKGRFTISRDNAKNTVYLQMNSLKPEATAVYYCSASYYSDIWPYSVYDLEFYWGQGTQVTVSS | high polyreactivity
QVQLVESGGGLVQAGGSLRLSCAASGGTFVFYAMGWYRQAPGKERELVAAISSAGRTYYADSVKGRFTISRDNAKNTVYFQMNSLKPEDNAVYYCAAVSSQYDGRYYYWGQGTQVTVSS | high polyreactivity
QVQLVESGGGLVQAGGSLRLSCAASGSIFIYNAMGWYRQAPGKERELVASITYRGGSTYYADSVKGRFTISRDKAKNTVYLQMNSLKPEDTAVYYCNAPQYFSYSWPYPREYDYWGQGTQVTVSS | high polyreactivity
QVQLVESGGGLVQAGGSLRLSCAASGGIFSCKAMGWYRQAPGKERELVAAITTRGGSTYYADSVKGRFTISRDNAKNSVYLQMNSLKPEDTAVYYCAAEGYEEFNWGQGTQVTVSS | low polyreactivity
QVQLVESGGGIVQAGGSLRLSCAASGRTFTVYAMGWYRQARGTARELVAAINYSVGSTYYADSVKGRFTISRDNAKNTVYLQMNSLNPEDTAVYYCAADLYHFSYSNSYIRYDYWGQGTQVTVSS | low polyreactivity
QVQLVESGGGLVQAGCSLRLRSAASGSIFSGYAMGWYRQAPWKERELDAVISSTGDSTYYADSVKGRFTISRDYAKNTVYLQMNSLKPEDTAVYYCAAYHGPWKWTTRYGYWGQGTQVTVSS | low polyreactivity
QVQLVESGGGLVQAGGSLRLSCPASGFIFQHYAMGWYRQAPGKERELVAAIDFTDGSTYYADSVKGRFTISRDNAKNTVYLQMNSLKPEDTAVYYCNALDYLYGGIYLDEDYWGQGTQVTVSS | low polyreactivity

From here, focus on the item given below.
I'd like to know its polyreactivity (PSR sort gate). The sequence in question is QVQLVESGGGLVQAGGSLRLSCAASGSILVGNPMGWYRQAPGTERELVAAISKSGSSTHYADSVKGRFTISRDNAKNTFYLQMNSLKPEDTAVYYCNAVGRVYRAKYDYWGQGTQVTVSS high polyreactivity
